Listing of recorded IC50 by entry.
- system: 5-HT1A receptors (Rattus norvegicus, UniProt P19327)
- Sequence (P19327 whole entry): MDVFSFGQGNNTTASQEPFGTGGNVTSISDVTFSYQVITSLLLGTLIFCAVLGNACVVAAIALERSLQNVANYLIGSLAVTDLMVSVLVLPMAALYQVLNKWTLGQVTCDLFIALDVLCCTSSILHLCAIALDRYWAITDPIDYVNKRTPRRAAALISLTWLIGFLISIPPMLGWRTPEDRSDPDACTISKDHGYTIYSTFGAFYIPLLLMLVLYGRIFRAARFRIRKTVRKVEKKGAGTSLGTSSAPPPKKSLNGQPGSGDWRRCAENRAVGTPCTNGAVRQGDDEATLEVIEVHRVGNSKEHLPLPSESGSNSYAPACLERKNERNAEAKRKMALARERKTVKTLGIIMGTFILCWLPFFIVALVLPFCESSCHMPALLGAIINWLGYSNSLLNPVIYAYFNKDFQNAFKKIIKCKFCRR
- method-summary: Inhibition of 3H-8-OH-DPAT binding to serotonin 5-HT1A receptors in rat brain in vitro
- Design: 5-HT1A receptors in membranes from rat brain minus cerebellum; from tissue; host or cells: brain minus cerebellum of male Wistar (Mol:Wist) rats, crude membranes; species or system rat (male Wistar)
- condition-parameters: 3H 8-OH DPAT binding IC50, 1 nM 3H-8-OH-DPAT, rat brain minus cerebellum membranes, 37° C., 15 min
Reply with just the number (in nM).

# example entries with known answers
Simply: CC(=O)Nc1ccc2c(c1)C(CN(C)CCCN1CCN(C3CCCCC3)C1=O)CC2 (centres unmarked) [Compound 13i] , 5-HT1A receptors (Rattus norvegicus, UniProt P19327), IC50 = 2.2

Simply: CCCN(CCC)CC1CCc2ccc(NC=O)cc21 (single isomer, unassigned; (-)) [Compound 10a] , 5-HT1A receptors (Rattus norvegicus, UniProt P19327), IC50 = 1

Simply: CCCN(CCC)CC1CCc2ccc(NC(=O)NC)cc21 (centres unmarked) , 5-HT1A receptors (Rattus norvegicus, UniProt P19327), IC50 = 6.6

Simply: CCCN(CCC)CC1CCc2ccc(NC(=O)Nc3ccc(F)cc3)cc21 (single isomer, unassigned; (+)) [Compound 10f] , 5-HT1A receptors (Rattus norvegicus, UniProt P19327), IC50 = 63

Continuing:
Simply: CCCN(CCC)CC1CCc2ccc(NC(C)=O)cc21 (single isomer, unassigned; (-)) [Compound 8a] , 5-HT1A receptors (Rattus norvegicus, UniProt P19327), IC50 = 0.64

All figures here come from patent US5807889A.
